Measured values drawn from PubChem BioAssay (NCI) for this set.

assay: NCI Yeast Anticancer Drug Screen. Data for the bub3 strain (AID 167); conditions: S. cerevisiae bub3 mutant strain, stronger effect = higher value; at 50.0 µM unless noted
The panel holds about 79,000 compounds, 15% with a hit somewhere; the sample as a whole holds those more often. Where a SMILES comes first, the peptide text is derived from it. The star is where a group is joined. Boc = CC(C)(C)OC(=O)*; OBn = c1ccc(CO*)cc1
measure: growth inhibition (%)
Report the figure in % without appending any unit label.

[
  {
    "molecule": "CCN(CC)CCNc1cc(OC)c(OC)cc1[N+](=O)[O-]",
    "units of measure": "%",
    "growth inhibition": -0.45
  },
  {
    "molecule": "CN(C)c1ccc(N=C(C#N)C(=O)c2ccccc2)cc1",
    "units of measure": "%",
    "growth inhibition": -15
  },
  {
    "molecule": "CCOC(=O)C1SC(=Nc2ccccc2)N=C1C (stereo unspecified)",
    "units of measure": "%",
    "growth inhibition": -19.6
  }
]

Input line: Would you mind telling me what growth inhibition value was observed for CC(C)CC(NC(=O)C(Cc1ccccc1)NC(=O)C(Cc1ccccc1)NC(=O)OC(C)(C)C)C(=O)OCc1ccccc1 (stereo not drawn) (Boc-Phe-Phe-Leu-OBn; configuration not given here) ?
Output line: 0.95

Input line: And Cc1ccc(C(=O)O)cc1 ?
Output line: 8.85

Input line: Entry to check: O=S(=O)(c1ccccn1)c1nc2ccccc2s1
Output line: -2.8

Input line: Further, for CN(Cc1ccccc1)c1cc(=O)n(C)c(=O)[nH]1 ?
Output line: 25.6

Input line: What about COc1cccc(/C=C/c2ccnnc2)c1 ?
Output line: 16.9

Input line: Entry to check: O=C(Cc1nc2ccc(C(=O)c3ccccc3)cc2[nH]c1=O)C(=O)Nc1ccc(C(F)(F)F)cc1[N+](=O)[O-]
Output line: -12.1

Input line: Try this molecule next: Cc1ccc2c(c1)C1(c3ccc(Cl)cc3Cl)Oc3ccc(C)cc3C(c3ccc(Cl)cc3Cl)(O2)O1
Output line: -2.7

Input line: Now consider CC(O)C(=O)N(CCO)c1ccccc1 (stereo unspecified) .
Output line: 2.2
